Catalogue of inhibition values
# subject.of.test: Neutrophil elastase (Homo sapiens) (UniProt P08246)
# Sequence (P08246 whole entry): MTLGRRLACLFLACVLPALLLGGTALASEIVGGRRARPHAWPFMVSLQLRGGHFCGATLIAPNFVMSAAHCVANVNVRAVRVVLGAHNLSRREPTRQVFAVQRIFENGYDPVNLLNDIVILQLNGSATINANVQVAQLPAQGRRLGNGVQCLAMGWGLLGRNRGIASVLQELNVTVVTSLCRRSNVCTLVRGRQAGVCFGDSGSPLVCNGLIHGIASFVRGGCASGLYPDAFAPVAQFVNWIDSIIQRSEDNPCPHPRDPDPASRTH
# assay.text: Inhibition of human leukocyte elastase-induced lung hemorrhage in hamster, after 100 ug of compound administered intratracheally.
# Format: functional, tissue-based
quantity: inhibition (%)

- molecule: "CCC1C(=O)N(S(=O)(=O)c2ccc(C)cc2)C1C(=O)OCC(=O)O (cis isomer)"
  quantity: "inhibition"
  recorded.value: 73
- molecule: "CCCC1C(=O)N(C(=O)OCC)C1OCC(=O)O (centres undefined)"
  quantity: "inhibition"
  recorded.value: 88
- molecule: "CCC1C(=O)N(S(=O)(=O)c2ccc(C)cc2)C1C(=O)N(C)CC(=O)O (cis isomer)"
  quantity: "inhibition"
  recorded.value: 84
- molecule: "CCOC(=O)N1C(=O)C(CC)C1OC(C)C(=O)O (single isomer, unassigned; isomer A)"
  quantity: "inhibition"
  recorded.value: 71
- molecule: "CCOC(=O)N1C(=O)C(CC)C1[S+]([O-])CC(=O)O (centres undefined)"
  quantity: "inhibition"
  recorded.value: 71
- molecule: "CCOC(=O)N1C(=O)C(CC)C1OCC(=O)NCC(=O)O (centres undefined)"
  quantity: "inhibition"
  recorded.value: 72
- molecule: "CCC1C(=O)N(S(=O)(=O)c2ccc(C)cc2)C1C(=O)OCC(=O)O (stereo in doubt)"
  quantity: "inhibition"
  recorded.value: 14
- molecule: "CC[C@@H]1C(=O)N(S(=O)(=O)c2ccc(C)cc2)[C@@H]1C(=O)N(C)CC(=O)O"
  quantity: "inhibition"
  recorded.value: 94
- molecule: "CC[C@@H]1C(=O)N(S(=O)(=O)c2ccc(C)cc2)[C@H]1C(=O)N(C)CC(=O)O"
  quantity: "inhibition"
  recorded.value: 74
